Entries and their measured viability, T/C follow.
- Tested on: 379773-124-R-J2-PDC complex spheroids, viability % test/control
- Measurement Description: Anticancer human tumor 379773-124-R-J2-PDC patient-derived endometrial carcinoma cell line growth inhibition [CLK]
- Setup Conditions: second compound 10 µM; first compound 0.316 µM; stronger effect = lower value
Respond numerically; units are % and should not be typed.

Data request: # query: viability, T/C of entry COc1cccc2c1C(=O)c1c(O)c3c(c(O)c1C2=O)CC(O)(C(=O)CO)CC3OC1CC(N)C(O)C(C)O1 (centres undefined) + CN1CCN(c2cc(C(=O)Nc3cc4cc(-c5cnn(C)c5)ccc4cn3)ccn2)CC1
Data returned: 0.12

Data request: Subsequent entry: COc1c(OCCCN2CCOCC2)ccc2c3n(c(=NC(=O)c4cnc(N)nc4)nc12)CCN3 + CN1CCN(c2cc(C(=O)Nc3cc4cc(-c5cnn(C)c5)ccc4cn3)ccn2)CC1
Data returned: 0.79

Data request: Subsequent entry: COC1C=CCC(C)C(C)S(=O)(=O)NC(=O)c2ccc3c(c2)N(CC2CCC21)CC1(CCCc2cc(Cl)ccc21)CO3 (centres undefined) + CN1CCN(c2cc(C(=O)Nc3cc4cc(-c5cnn(C)c5)ccc4cn3)ccn2)CC1
Data returned: 0.18

----------
- System: 379773-124-R-J2-PDC complex spheroids, viability % test/control
- Measurement Description: Anticancer human tumor 379773-124-R-J2-PDC cell line growth inhibition [CLK]; active = viability on the fitted dose curve at most 10% of control; inactive = the rest;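 note: compound exposure lasted seven days before the viability readout; 100% = DMSO vehicle control wells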
- Setup Conditions: second compound 0.316 µM; first compound 0.1 µM
Valid outcomes are listed here; reply with one: y (active), n (inactive)

Solved cases (5 shown):
compound="CC(=O)O[C@H]1C(=O)[C@@]2(C)[C@H]([C@H](OC(=O)c3ccccc3)[C@]3(O)C[C@H](OC(=O)[C@H](O)[C@@H](NC(=O)c4ccccc4)c4ccccc4)C(C)=C1C3(C)C)[C@]1(OC(C)=O)CO[C@@H]1C[C@@H]2O + CN1CCN(c2cc(C(=O)Nc3cc4cc(-c5cnn(C)c5)ccc4cn3)ccn2)CC1" class_assignment=y
compound="C#Cc1c(F)ccc2cc(O)cc(-c3ncc4c(N5CC6CCC(C5)N6)nc(OCC56CCCN5CC(F)C6)nc4c3F)c12 (stereo unspecified) + CN1CCN(c2cc(C(=O)Nc3cc4cc(-c5cnn(C)c5)ccc4cn3)ccn2)CC1" class_assignment=n
compound="CCN1CCN(Cc2ccc(Nc3ncc(F)c(-c4cc(F)c5nc(C)n(C(C)C)c5c4)n3)nc2)CC1 + CN1CCN(c2cc(C(=O)Nc3cc4cc(-c5cnn(C)c5)ccc4cn3)ccn2)CC1" class_assignment=n
compound="CC1(C)CCC(CN2CCN(c3ccc(C(=O)NS(=O)(=O)c4ccc(NCC5CCOCC5)c([N+](=O)[O-])c4)c(Oc4cnc5[nH]ccc5c4)c3)CC2)=C(c2ccc(Cl)cc2)C1 + CN1CCN(c2cc(C(=O)Nc3cc4cc(-c5cnn(C)c5)ccc4cn3)ccn2)CC1" class_assignment=n
compound="O=c1[nH]cc(F)c(=O)[nH]1 + CNC(=O)c1ccc(Nc2nc(OC3CCCC3)c3c(-c4ccc5nc(C)oc5c4)c[nH]c3n2)c(OC)c1" class_assignment=n

Data request: Assay result, entry CC(Nc1ccc2c(c1)OCCn1cc(N3C(=O)OCC3C(F)F)nc1-2)C(N)=O (stereo unspecified) + CN1CCN(c2cc(C(=O)Nc3cc4cc(-c5cnn(C)c5)ccc4cn3)ccn2)CC1 — outcome?
Data returned: n

Every entry's value here was drawn from PubChem BioAssay AID2060604.
